Values were extracted from patent US10766869B2.

Tested on: primary rat mixed cortical cells
Assay: In vitro myelination assay (MBP positive myelin strands, fold myelin pixels above background)
Type: cell-based
Conditions: Rattus norvegicus, 10.0 μM compound; read-out: Fold myelin pixels above background relative to baseline of no added compound
Description: In Vitro Myelination Assay Compounds were screened for their ability to induce myelination using a primary rat mixed cortical cell culture assay, which contains neurons, oligodendrocyte precursor cells, oligodendrocytes, astrocytes and microglia. […] The myelin strands were quantitated using a custom created myelin detection software program. […]
parameterMeasured: fold induction at 10 µM

Fill blank: measured fold induction at 10 µM of the compound Cc1cc(Nc2ncn(-c3cc(F)cc(F)c3)n2)cc(N2CCOC(CN(C)C)C2)c1 (stereo not drawn) is ____.
≤ 1

Fill blank: measured fold induction at 10 µM of the compound Cc1cc(Nc2ncn(-c3ccc(F)c(F)c3)n2)cc(N[C@H]2C[C@H](N3CCOCC3)C2)c1 (single isomer, unassigned) is ____.
≤ 1

Fill blank: measured fold induction at 10 µM of the compound Cc1cc(Nc2ncn(-c3cc(F)cc(F)c3)n2)cc(NC2CCOC(C3CC3)C2)c1 (stereo not drawn) is ____.
≤ 1

Fill blank: measured fold induction at 10 µM of the compound Cc1cc(NCC2CCCC2N2CCOCC2)cc(Nc2ncn(-c3cc(F)cc(F)c3)n2)c1 (stereo not drawn) is ____.
1 to 10

Fill blank: measured fold induction at 10 µM of the compound Cc1cc(Nc2ncn(-c3ccccc3)n2)c(F)c(OC2CCOC2)c1 (stereo not drawn) [Compound 907] is ____.
100 to 1000

Fill blank: measured fold induction at 10 µM of the compound Cc1cc(Nc2ncn(-c3cc(F)cc(F)c3)n2)cc(N2CC(NCCO)C2)c1 is ____.
≤ 1

Fill blank: measured fold induction at 10 µM of the compound CCN1CCN(C2CCN(c3cc(C)cc(Nc4ncn(-c5cc(F)cc(F)c5)n4)c3)CC2)CC1 is ____.
10 to 100

Fill blank: measured fold induction at 10 µM of the compound Cc1cc(Nc2ncn(-c3cc(F)cc(F)c3)n2)cc(N2CC(N3CC4CC3CO4)C2)c1 (stereo not drawn) is ____.
1 to 10

Fill blank: measured fold induction at 10 µM of the compound Cc1cc(Nc2ncn(-c3cc(F)cc(F)c3)n2)cc(N2CCC(OCCF)CC2)c1 is ____.
1 to 10

Fill blank: measured fold induction at 10 µM of the compound [2H]C1([2H])OC([2H])([2H])C([2H])([2H])N(c2cc(C)cc(Nc3ncn(-c4cc(F)cc(F)c4)n3)c2)C1([2H])[2H] is ____.
≤ 1

Fill blank: measured fold induction at 10 µM of the compound Cc1cc(Nc2ncn(-c3cccc(C(F)F)c3)n2)nc(N2CCN(C3COC3)CC2)c1 is ____.
10 to 100

Fill blank: measured fold induction at 10 µM of the compound Cc1cc(Nc2ncn(-c3cc(F)cc(F)c3)n2)cc(N2CCC(CN3CCOCC3)CC2)c1 is ____.
≤ 1

Fill blank: measured fold induction at 10 µM of the compound COCCCCN1CCN(c2cc(C)cc(Nc3ncn(-c4cc(F)cc(F)c4)n3)c2)CC1 is ____.
1 to 10

Fill blank: measured fold induction at 10 µM of the compound Cc1cc(Nc2ncn(-c3cc(F)cc(F)c3)n2)nc(OCC2COC2)c1 is ____.
1 to 10

Fill blank: measured fold induction at 10 µM of the compound [2H]C1([2H])N(C(C)=O)C([2H])([2H])C([2H])([2H])N(c2cc(C)cc(Nc3ncn(-c4cc(F)cc(F)c4)n3)c2)C1([2H])[2H] is ____.
1 to 10
